Reference source: ChEMBL document CHEMBL4052630

Exercise: for every item that follows, state its recorded IC50.
Enter your answer as a number in nM; do not include the unit.

For Acetylcholinesterase (Homo sapiens, UniProt P22303), provide IC50 of `CCN(CCCCNC(=O)COc1ccc(-c2cc(=O)c3c(OC)c(OC)c(OC)cc3o2)cc1)Cc1ccccc1OC` please.
63

Hello, I am looking for reported IC50 with Acetylcholinesterase (Homo sapiens, UniProt P22303) for `CCN(CCCCCCNC(=O)COc1ccc(-c2cc(=O)c3c(OC)c(OC)c(OC)cc3o2)cc1)Cc1ccccc1OC` . Could you help?
1250

Which measured IC50 belongs to `CCN(CCCCNC(=O)COc1ccc(-c2cc(=O)c3c(O)c(OC)c(OC)cc3o2)cc1)Cc1ccccc1OC` , tested on Acetylcholinesterase (Homo sapiens, UniProt P22303)?
39

Item: `CCN(CCCCCCNC(=O)COc1ccc(-c2cc(=O)c3c(O)c(OC)c(OC)cc3o2)cc1)Cc1ccccc1OC` Test system: Acetylcholinesterase (Homo sapiens, UniProt P22303) Read-out: IC50 Value: ?
1370
